Tested on: CSK
runConditions: concentration: 1 μM, replicates: in singlicate; n = 1
attributeMeasured: %Inh (%)
Unit % implied. Number only.

compound: COc1ccccc1-c1ccc2c(NC(=O)C3CC3)n[nH]c2n1
subjectOfTest: CSK
unitDescriptor: %
observedResult: 62

compound: Cc1cccc(-c2cc(Nc3ccncc3)c3ccccc3n2)n1
subjectOfTest: CSK
unitDescriptor: %
observedResult: 0

compound: CS(=O)(=O)c1ccc(-c2nc3n(c2-c2ccncc2)CCC3)cc1
subjectOfTest: CSK
unitDescriptor: %
observedResult: 100

Param readout = %Inh; param system = CSK; param query = COc1cc2ncnc(Nc3ccc4nc(-c5ccccc5)[nH]c4c3)c2cc1OC.Cl ; response: value
10

Param readout = %Inh; param system = CSK; param query = CCCc1ccc(S(=O)(=O)NC2CCN(c3ccnc(Nc4ccc(F)cc4)n3)C2)cc1 (centres unmarked) ; response: value;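 note: KINOMEscan kinase panel screen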
0
